Field: z-score of subpopulation abundance. Provide a value for each of the compounds that follow.
Test system: Saccharomyces cerevisiae BY4741 SeMeCo community
METHOD: z-score of subpopulation abundance vs DMSO median, subpopulation auxotrophic for H; higher = larger share of this subpopulation than in DMSO controls
TEST_PARAMETERS: 10 µM; 24 h; SM minimal medium; subpopulation (auxotrophy): H
Structures can show the parent of a compound that is named as a salt.
No unit in the answer, only the number.

Ask: Name the reported z-score of subpopulation abundance value associated with the compound C[C@]1(COc2ccc(N3CCC(Oc4ccc(OC(F)(F)F)cc4)CC3)cc2)Cn2cc([N+](=O)[O-])nc2O1 [Delamanid]
Result: 0.86

Ask: I'd like to know its z-score of subpopulation abundance. The compound in question is Cc1onc(-c2ccccc2Cl)c1C(=O)N[C@@H]1C(=O)N2[C@@H]1SC(C)(C)[C@@H]2C(=O)O [Cloxacillin Sodium]
Result: -0.29

Ask: Using the record for Cc1cccc(N(C)C(=S)Oc2ccc3ccccc3c2)c1 [Tolnaftate] , report its z-score of subpopulation abundance.
Result: -1.13

Ask: Reported z-score of subpopulation abundance, compound Cc1nccn1CC1CCc2c(c3ccccc3n2C)C1=O (stereo not given) [Ondansetron Hydrochloride Dihydrate] : ____
Result: -0.54

Ask: // lookup z-score of subpopulation abundance for C[C@@H]1CN(c2c(F)c(N)c3c(=O)c(C(=O)O)cn(C4CC4)c3c2F)C[C@H](C)N1 [Sparfloxacin]
Result: -0.34

Ask: Given the compound CO/N=C(\C(=O)N[C@@H]1C(=O)N2C(C(=O)O)=C(CSC(=O)c3ccco3)CS[C@H]12)c1csc(N)n1 [Ceftiofur] , what is its reported z-score of subpopulation abundance?
Result: 0.28

Ask: Fill in: z-score of subpopulation abundance of CCCCCCCCCCCC(=O)O [Lauric Acid] is ___
Result: -1.48

Ask: If you can, please state the reported z-score of subpopulation abundance value of CO/N=C(\C(=O)N[C@@H]1C(=O)N2C(C(=O)O)=C(CSc3nnnn3C)CS[C@H]12)c1csc(N)n1 [Cefmenoxime hydrochloride] .
Result: 0.02

Ask: Could you tell me which z-score of subpopulation abundance is on file for CCOC(=O)C1=C(COCCN)NC(C)=C(C(=O)OC)[C@@H]1c1ccccc1Cl [Levamlodipine] ?
Result: 2.66

Ask: Given CC(=O)NS(=O)(=O)c1ccc(N)cc1 [Sulfacetamide Sodium] , state its recorded z-score of subpopulation abundance.
Result: 0.92

Ask: Recorded z-score of subpopulation abundance of CC(=O)Oc1ccc(C(=C2CCCCC2)c2ccc(OC(C)=O)cc2)cc1 [Cyclofenil] , please.
Result: -0.22

Ask: Which z-score of subpopulation abundance reading was recorded for the compound Cc1nc(=O)c2cc(CN(C)c3ccc(C(=O)N[C@@H](CCC(=O)O)C(=O)O)s3)ccc2[nH]1 [Raltitrexed] ?
Result: -0.94

Ask: Which z-score of subpopulation abundance is listed for Cc1ccc(Sc2ccccc2N2CCNCC2)c(C)c1 [Vortioxetine] ?
Result: -0.14

Ask: # get_value(readout='z-score of subpopulation abundance', item= Cn1c(=O)c2c(ncn2CC(O)CO)n(C)c1=O (stereo not given) [Dyphylline] )
Result: -0.64

Ask: Record request: z-score of subpopulation abundance value, item CCCN1C[C@H](C)[C@@H](O)[C@](C)(O)[C@@H](CC)OC(=O)[C@H](C)[C@@H](O[C@H]2C[C@@](C)(OC)[C@@H](O)[C@H](C)O2)[C@H](C)[C@@H](O[C@@H]2O[C@H](C)C[C@H](N(C)C)[C@H]2O)[C@](C)(O)C[C@H]1C [Gamithromycin]
Result: 2.25

Recorded values, source the supplement of paper PMC8975748.
